Where do these numbers come from? They come from PubChem BioAssay (NCI).

# Tested on: PC-3 prostate
# Test Description: NCI tumour cell line growth inhibition, 48 h
Value Type: TGI (µM)
Report as a plain number; the unit µM is understood.

Which value of TGI has been reported for CCNC1=CC(=O)c2ncccc2C1=O in the records? 22.8

So what's the measured TGI for this one? O=C(O)CCN1C(=O)/C(=C/C(Cl)=C/c2ccccc2)SC1=S 11.4

###

# System: SF-295 CNS
# Test Description: NCI tumour cell line growth inhibition, 48 h
Value Type: TGI

I am curious: what TGI value has been reported for CN(C)CCCN1C(=O)N(CCCN(C)C)c2c3cc(O)ccc3nc3c([N+](=O)[O-])ccc1c23 ? > 100 µM

Recorded TGI of Cc1cc(C(C)(C)C)c(OCCCN2CCOCC2)c(C(C)(C)C)c1 , please. 33.1 µM

Endpoint output: TGI of CC(C)=CCC/C(C)=C/CCC1(C)C2COC(=O)C21 (stereo unspecified) . Value? > 100 µM

Give the measured TGI of CCn1c2ccccc2c2cc(NC(=O)c3c(C)[nH]c(=O)[nH]c3=S)ccc21 . > 100 µM

Which TGI is listed for Fc1ccc(-c2c(-c3ccncc3)n(CCN3CCOCC3)c3cccnc23)cc1 ? > 25 µM

Entry under review: CCCCCCCCCCCOCCC1C(C(C)OCCN2CCCC2)OC2OC(C)(C)OC21 (stereo unspecified) . Reported TGI? 5.71 µM

Requested field: TGI. Item: Nc1ncnc2c(C3OC(CO)C(O)C3O)c[nH]c12 (stereo unspecified) 1.02 µM

Please give the measured TGI for this compound: Cc1ccc(C)c(NC(=O)CCc2n[nH]c(=S)o2)c1 > 100 µM

Report TGI for O=C1CCCC2COc3ccc(O)c1c32 (stereo unspecified) please. > 100 µM

Return reported TGI; argument: COCCOCCOCCOCCOc1ccc2c(c1)C(=O)c1nc3ncccc3c(=O)n1-2 1.4 µM

So what's the measured TGI for this one? CC(CN(C)C)C(O)(c1ccccc1)c1ccccc1 (stereo unspecified) > 100 µM

###

# Tested on: OVCAR-5 ovarian
# Test Description: NCI tumour cell line growth inhibition, 48 h
Value Type: log10(TGI) (log10 of the value in µM)
Parameter value (number): base-10 log of TGI in µM.

Short answer please: log10(TGI), OVCAR-5 ovarian, entry OCC1=C[C@@](COCc2ccccc2)(OCc2ccccc2)[C@@H](OCc2ccccc2)[C@@H]1OCc1ccccc1 1.78

Look up log10(TGI) with OVCAR-5 ovarian for this molecule: O=[N+]([O-])C(=C(c1ccccc1)c1ccccc1)[N+](=O)[O-] 1.54

Entry C[C@H]1CC(=O)[C@@]2(O)C#C/C=C\C#C[C@@H]3Nc4c(cc(O)c5c4C(=O)c4ccccc4C5=O)[C@]24O[C@]314 , system OVCAR-5 ovarian: what log10(TGI) was measured? -0.17

For the record O=c1oc2ccccc2cc1-c1nc2ccccc2s1 , what value of log10(TGI) is listed for OVCAR-5 ovarian? 1.81

Hi! What's the reported log10(TGI) for O=C(Nc1ccc(-c2nc3ccc(NC(=O)c4ccc(Cl)cc4)cc3[nH]2)cc1)c1ccc(Cl)cc1 on OVCAR-5 ovarian? 1.28

###

For each entry below, report its TGI value.
# System: SK-OV-3 ovarian
# Test Description: NCI tumour cell line growth inhibition, 48 h

Requested field: TGI. Item: C=C1C(=O)C23C(CC(OC(C)=O)C1[C@@H]2OC(C)=O)C1(C)C(OC(C)=O)CCC(C)(C)C1C[C@@H]3OC(C)=O (some centres undefined) 3.59 µM

Recorded TGI for COc1cc(C(=O)c2c(-c3ccccc3)oc3ccccc23)cc(OC)c1O , please? 52.1 µM

Name the reported TGI value associated with the compound O=C1CCCc2c(O)ccc(O)c21 > 100 µM

Recorded TGI of Cc1cc(C(C)(C)C)c(OCCCN2CCOCC2)c(C(C)(C)C)c1 , please. 35.6 µM

Can you share its TGI? I mean this compound: O=C1CCCC2COc3ccc(O)c1c32 (centres undefined) > 100 µM

Recorded TGI of COCCOC(=O)CCn1cc(F)c(=O)[nH]c1=O , please. > 150 mg/L

Entry CC(CN(C)C)C(O)(c1ccccc1)c1ccccc1 (centres undefined) has what TGI? > 100 µM

If you can, please state the reported TGI value of CN(c1ccccc1)c1c(-c2ccccc2)c(=O)oc2c1ccc1occc12 . > 100 µM

# get_value(readout='TGI', item= CC(C)(C)c1ccc(C(O)(c2ccc(C(C)(C)C)cc2)c2ccc(C(C)(C)C)cc2)cc1 ) > 100 µM

Given C/C(=N\N=C(N)N)c1sc(-c2nc(C)c(/C(C)=N/N=C(N)N)s2)nc1C , state its recorded TGI. > 100 µM

Param item = N#Cc1nc(Cc2cccs2)oc1N ; retrieve measured TGI. > 100 µM

Dear colleague, I am looking for the recorded TGI of the following compound: Nc1ncc(Cc2nn3c(COc4ccc(Cl)cc4)nnc3s2)s1 > 100 µM

Form field: reported TGI of Cn1cnc([N+](=O)[O-])c1Sc1nncc2[nH]cnc12 > 100 µM

// query TGI value for entry CCOc1cc(C=Nc2ccc(Oc3ccc(Cl)cc3)c(Cl)c2)ccc1O 58.3 µM

Any idea what its TGI is? The compound is CC1Oc2c(c(O)cc3oc(=O)cc(-c4ccccc4)c23)C(=O)C1C (centres undefined) > 100 µM

Please give the measured TGI for this compound: Cc1cc(I)cc(CN(C)CCCCN2CCCC2)c1O 67.8 µM

Need TGI of O=C(O)c1cc2c(cc1CC(Cc1ccccc1)C(=O)O)CCC2 (centres undefined) , thanks. > 100 µM

Quick check: TGI of Fc1ccc(-c2c(-c3ccncc3)n(CCN3CCOCC3)c3cccnc23)cc1 ? > 25 µM

Any idea what TGI was measured for COc1ccc(/C=C(\C#N)c2nc(-c3cc4ccccc4oc3=O)cs2)cc1 ? 36.6 µM

Give the measured TGI of COc1ccccc1OCC(O)CO (centres undefined) . > 100 µM

What value of measured TGI is listed for CNc1ccc([N+](=O)[O-])cc1C(=O)N1CCC[C@H]1CO ? > 100 µM

Quick check: TGI of O=C(O)C1C2CC3CC2CC31 (centres undefined) ? > 100 µM

Recorded TGI of O=c1c2cc(Cl)ccc2n2nnc3ccc(NCCNCCO)c1c32 , please. 6.26 µM

Given the entry COc1cc2c(cc1OCc1ccccc1)NC(=O)[C@@H]1C[C@@H](O)CN1C2=O , report its measured TGI. > 100 µM

###

# Tested on: HL-60(TB) leukemia
# Test Description: NCI tumour cell line growth inhibition, 48 h
Hi there, I'd appreciate the recorded TGI for every entry that follows.
Only the number, expressed in µM, is required.

// query TGI value for entry Nc1nc(Cl)cc(NCCCCCCCCCCNc2cc(Cl)nc(N)n2)n1 34.6

Need TGI of COc1cc(/C=C2\N=C(c3ccccc3)N(c3ccc(C(=O)c4ccccc4)cc3N3C(=O)/C(=C/c4cc(OC)c(OC)c(OC)c4)N=C3c3ccccc3)C2=O)cc(OC)c1OC , thanks. 15.5

###

# Tested on: HCC-2998 colon
# Test Description: NCI tumour cell line growth inhibition, 48 h
Value Type: TGI

Field: TGI (HCC-2998 colon). Entry: O=C1CCCC2COc3ccc(O)c1c32 (stereo unspecified) > 100 µM

What is its TGI for HCC-2998 colon? Entry: CC1=CC(=O)c2[nH]c3ccccc3c2C1=O 24 µM

Field: TGI (HCC-2998 colon). Entry: COc1cc(/C=C/C=C2\CC(C)C/C(=C\C=C\c3ccc(O)c(OC)c3)C2=O)ccc1O (stereo unspecified) > 100 µM

Please provide the recorded TGI for N#CC(/C(=N\NC(N)=S)C(=O)NC1C2CC3CC(C2)CC1C3)c1ccc(Cl)cc1 (stereo unspecified) , tested on HCC-2998 colon. > 100 µM

Recall the recorded TGI for CCCNC(=O)Cn1c(-c2ccccc2)cc2ccccc21 with HCC-2998 colon and state it. > 100 µM

Please provide the recorded TGI for CCCC/C(C)=N/NC(N)=S , tested on HCC-2998 colon. > 100 µM

###

# Tested on: UACC-62 melanoma
# Test Description: NCI tumour cell line growth inhibition, 48 h
Value Type: TGI (µM)
Give the quantity in µM, number only.

What value of TGI has been recorded for this entry: NC(=NC1C2CC3CC(C2)CC1C3)Nc1ccc(I)cc1 (configuration not stated) 9.33

// query TGI value for entry O=C1C=Cc2noc3cccc1c23 13.4

What does the data say about its TGI? Entry: NC(=O)c1ccc(-c2c3ccccc3cc3c2ccc2ccccc23)cc1 40.2

State the recorded TGI for this entry: C[C@H]1CC(=O)[C@@]2(O)C#C/C=C\C#C[C@@H]3Nc4c(cc(O)c5c4C(=O)c4ccccc4C5=O)[C@]24O[C@]314 0.133

Please report the recorded TGI for CCCS(=O)OC1C(C2COC(C)(C)O2)OC2OC(C)(C)OC21 (configuration not stated) . 35.2
